- target_entity: T1, recombinant purified FRα (ECL assay calibrator) (human, UniProt P15328 25-234)
- T1 construct: Calibrator of the ECL sandwich assays; also called FRα calibrator; FRα standard
- experiment_notes: ECL sandwich on FRα, signal to background; capture 6A2.G7; binder = detection Ab
measurement_kind: Average of S/B

Solved entries (count: 2):
binder | Average of S/B
Monoclonal antibody 24H8.F3 (antibody, mouse IgG1, V domains shown, Murine IgG1 kappa from hybridoma; also called ATCC PTA-123097) VH: GPGLVAPSQSLSITCTVSGFSLTSYGVSWVRQPPGKGLEWLGVIWGDGSTNYHSTLISRLSISKDNSKSQVFLKLNSLQTDDTATYYCAKPHPAATGAMDYWGQGTSVTVSS VL: TTSSLSASLGDRVTISCRASQDISNHLNWYQQKPDGTIKLLIYYTSKLHSGVPSRFSGSGSGTDYSLTISNLEQEDIATYFCQQGNTLWTFGGGTKLEIK | 27
Monoclonal antibody 1A8.G11.E7 (antibody, mouse IgG1, V domains shown, Murine IgG1 kappa from hybridoma; also called ATCC PTA-123100) VH: ESGPGLVAPSQSLSITCTVSGFSLTSYGVSWVRQPPGKGLEWLGVIWGDGSTNYHSTLISRLSISKDNSKSQVFLKLNSLQTDDTATYYCAKPHPAATGAMDYWGQGTSVTVSS VL: TQTTSSLSASLGDRVTISCRASQDISNHLNWYQQKPDGTVKLLIYYTSRLHSGVPSRFSGSGSGTDYSLTISNLEQEDIATYFCQQGNTLWTFGGGTKLEIK | 27

Continue with the next binder.
Lab note: Monoclonal antibody 1D2.D8.G10 (antibody, mouse IgG1, V domains shown, Murine IgG1 kappa from hybridoma; also called 1D2.D8.G0; ATCC PTA-123098) VH: QSGTVLARPGASVKMSCKASGYSFTSNWMHWIKQRPGQGLEWIGAIYPGNSDTSYNQKFKGKAKLTAVTSASTAYMELSSLTNEDSAVYHCTRGDGSSFWYFDVWGAGTTVTVSS VL: QSPASLVVSLGQRATISCRASKSVSTSGYSYMYWYQQKSGQPPKLLIYLASNLESGVPARFSGGGSGTDFTLNIHPVEEEDAATYYCQQSRELPPTFGGGTKLEIK gave Average of S/B of 26

Data origin: patent US20180148504A1
